- tested.on: DNA topoisomerase 1 (Homo sapiens)
- Sequence (whole entry): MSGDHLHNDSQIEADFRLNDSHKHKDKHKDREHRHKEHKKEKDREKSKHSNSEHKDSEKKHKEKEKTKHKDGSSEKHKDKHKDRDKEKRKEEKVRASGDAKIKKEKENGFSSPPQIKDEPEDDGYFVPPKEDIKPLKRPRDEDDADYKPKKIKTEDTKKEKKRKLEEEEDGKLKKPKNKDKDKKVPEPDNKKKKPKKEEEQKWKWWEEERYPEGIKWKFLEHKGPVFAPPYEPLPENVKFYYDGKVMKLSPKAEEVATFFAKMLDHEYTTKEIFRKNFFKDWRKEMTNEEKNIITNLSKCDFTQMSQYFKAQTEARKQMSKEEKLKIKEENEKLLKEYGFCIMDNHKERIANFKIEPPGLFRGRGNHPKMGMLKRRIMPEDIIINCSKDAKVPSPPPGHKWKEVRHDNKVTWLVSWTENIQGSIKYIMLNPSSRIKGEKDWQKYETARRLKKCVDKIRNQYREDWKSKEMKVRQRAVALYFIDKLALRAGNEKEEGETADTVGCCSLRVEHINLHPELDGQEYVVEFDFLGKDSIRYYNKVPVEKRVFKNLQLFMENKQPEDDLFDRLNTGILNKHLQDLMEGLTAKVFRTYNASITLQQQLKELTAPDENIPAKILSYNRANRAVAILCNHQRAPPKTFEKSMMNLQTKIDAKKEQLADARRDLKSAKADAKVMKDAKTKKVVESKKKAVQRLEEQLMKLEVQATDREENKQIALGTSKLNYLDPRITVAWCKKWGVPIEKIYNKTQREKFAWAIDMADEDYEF
- assay.name: Inhibition of recombinant human topoisomerase 1-mediated relaxation of supercoiled pBR322 DNA at 100 uM measured after 30 mins by ethidium bromide staining based agarose gel electrophoresis relative to control
reported.endpoint: inhibition (%)

Consider the worked cases shown below.
In [3]: df
Out[3]:
                           structure_string  result_number
0  Oc1ccc(-c2cc(-c3cccc(Cl)c3)c3c(n2)-c2cccc(O)c2C3)cc1            6.1
1  Oc1cccc(-c2cc(-c3cccc(Cl)c3)c3c(n2)-c2cc(O)ccc2C3)c1           11.6
2  Oc1ccc(-c2cc(-c3cccc(F)c3)nc3c2Cc2cc(O)ccc2-3)cc1            8.7

A. Oc1cccc(-c2cc(-c3cccc(Cl)c3)c3c(n2)-c2ccc(O)cc2C3)c1
B. Oc1ccccc1-c1cc(-c2ccc(C(F)(F)F)cc2)nc2c1Cc1c(O)cccc1-2
Hey, which is lower on measured inhibition, A or B ? Record your answer as the label of the chosen record.
B
(B: 0%, A: 3.7%)

1. Oc1cccc(-c2cc(-c3ccccc3Cl)nc3c2Cc2cccc(O)c2-3)c1
2. Oc1ccc(-c2cc(-c3ccc(F)cc3)nc3c2Cc2cccc(O)c2-3)cc1
Hey, which is lower on measured inhibition, 1 or 2 ? Record your answer as the label of the chosen record.
2
(2: 1.2%, 1: 6.3%)

A. Oc1ccc2c(c1)-c1nc(-c3ccccc3O)cc(-c3ccc(Cl)cc3)c1C2
B. Oc1ccc(-c2cc(-c3ccccc3Cl)c3c(n2)-c2c(O)cccc2C3)cc1
C. Oc1cccc(-c2cc(-c3ccccc3C(F)(F)F)nc3c2Cc2cccc(O)c2-3)c1
D. Oc1ccc2c(c1)Cc1c(-c3ccccc3O)cc(-c3ccccc3F)nc1-2
E. Oc1ccccc1-c1cc(-c2ccccc2Cl)c2c(n1)-c1cccc(O)c1C2
Please list these compounds in decreasing order of inhibition. Give the labels in the order requested.
E, C, B, A, D
(E: 23.7%, C: 15.9%, B: 10.3%, A: 2.9%, D: 0%)

P. Oc1ccc(-c2cc(-c3cccc(Cl)c3)nc3c2Cc2cccc(O)c2-3)cc1
Q. Oc1ccc2c(c1)-c1nc(-c3ccccc3)cc(-c3ccccc3)c1C2
R. Oc1cccc(-c2cc(-c3cccc(F)c3)nc3c2Cc2ccc(O)cc2-3)c1
S. Oc1ccc(-c2cc(-c3ccccc3F)nc3c2Cc2c(O)cccc2-3)cc1
Please list these compounds in decreasing order of inhibition. Give the labels in the order requested.
R, S, Q, P

I. Oc1ccccc1-c1cc(-c2cccc(Cl)c2)nc2c1Cc1cccc(O)c1-2
II. Oc1ccc(-c2cc(-c3ccc(C(F)(F)F)cc3)nc3c2Cc2cc(O)ccc2-3)cc1
III. Oc1ccc2c(c1)Cc1c(-c3ccccc3Cl)cc(-c3ccccc3O)nc1-2
Sort low-to-high on inhibition, please. Give the labels in the order requested.
I, III, II
(I: 13.1%, III: 37%, II: 87.4%)

a. Oc1cccc(-c2cc(-c3ccc(F)cc3)nc3c2Cc2cccc(O)c2-3)c1
b. Oc1ccc2c(c1)-c1nc(-c3ccc(Cl)cc3)cc(-c3ccccc3O)c1C2
Hey, which is lower on measured inhibition, a or b ? Record your answer as the label of the chosen record.
a

----------
- System: HeLa
- assay.name: Antiproliferative activity against human HeLa cells measured after 72 hrs by EZ-Cytox assay
- Format: functional, cell-based
reported.endpoint: pIC50
# log scale: pIC50 equals minus log10 of the concentration in mol/L

Consider the worked cases shown below.
In [3]: df
Out[3]:
                           structure_string  result_number
0  Oc1cccc(-c2cc(-c3ccc(C(F)(F)F)cc3)nc3c2Cc2cc(O)ccc2-3)c1           4.94
1  Oc1cccc(-c2cc(-c3cccc(F)c3)nc3c2Cc2cc(O)ccc2-3)c1           5.41
2  Oc1cccc(-c2cc(-c3ccccc3C(F)(F)F)nc3c2Cc2ccc(O)cc2-3)c1           5.43

Okay, next one:
GET pIC50 where system = HeLa and item = Oc1ccc2c(c1)-c1nc(-c3ccc(F)cc3)cc(-c3ccccc3O)c1C2
5.36

----------
- System: HeLa
- assay.name: Antiproliferative activity against human HeLa cells measured after 72 hrs by EZ-Cytox assay
- Format: functional, cell-based
reported.endpoint: IC50 (µM)
Write the number in µM without appending the unit.

>>> df
                           structure_string  value_unit  result_number
0  Oc1cccc(-c2cc(-c3cccc(Cl)c3)c3c(n2)-c2cc(O)ccc2C3)c1          µM           6.24
1  Oc1ccc(-c2cc(-c3ccccc3F)nc3c2Cc2c(O)cccc2-3)cc1          µM           6.19
2  Oc1ccccc1-c1cc(-c2ccccc2F)nc2c1Cc1c(O)cccc1-2          µM           4.18
3  Oc1ccc(-c2cc(-c3cccc(Cl)c3)c3c(n2)-c2c(O)cccc2C3)cc1          µM           43.8

Identify IC50 associated with the molecule Oc1cccc(-c2cc(-c3cccc(F)c3)nc3c2Cc2c(O)cccc2-3)c1
7.04

Identify IC50 associated with the molecule Oc1ccccc1-c1cc(-c2ccccc2)c2c(n1)-c1cccc(O)c1C2
1.83

Identify IC50 associated with the molecule Oc1ccc2c(c1)Cc1c(-c3ccccc3O)cc(-c3ccc(C(F)(F)F)cc3)nc1-2
7.87

Identify IC50 associated with the molecule Oc1ccc2c(c1)-c1nc(-c3ccccc3C(F)(F)F)cc(-c3ccccc3O)c1C2
2.96

Identify IC50 associated with the molecule Oc1cccc(-c2cc(-c3cccc(Cl)c3)c3c(n2)-c2cccc(O)c2C3)c1
35.5

----------
- Test system: HeLa
- assay.name: Antiproliferative activity against human HeLa cells measured after 72 hrs by EZ-Cytox assay
- Type: functional, cell-based
The entries below come with measured IC50 values attached.
Write the number in µM without appending the unit.

Consider the worked cases shown below.
structure.string	tested.on	IC50 [µM]
Oc1ccc(-c2cc(-c3ccc(F)cc3)nc3c2Cc2cc(O)ccc2-3)cc1	HeLa	3.84
Oc1ccccc1-c1cc(-c2ccc(C(F)(F)F)cc2)nc2c1Cc1cccc(O)c1-2	HeLa	5.24
Oc1ccccc1-c1cc(-c2cccc(Cl)c2)c2c(n1)-c1cccc(O)c1C2	HeLa	20.5

Identify IC50 associated with the compound Oc1cccc(-c2cc(-c3ccccc3F)nc3c2Cc2ccc(O)cc2-3)c1
3.74

Identify IC50 associated with the compound Oc1cccc(-c2cc(-c3ccc(Cl)cc3)nc3c2Cc2cccc(O)c2-3)c1
6.74

Identify IC50 associated with the compound Oc1ccc2c(c1)-c1nc(-c3ccc(C(F)(F)F)cc3)cc(-c3ccccc3O)c1C2
2.23

Identify IC50 associated with the compound Oc1ccc(-c2cc(-c3cccc(C(F)(F)F)c3)nc3c2Cc2ccc(O)cc2-3)cc1
3.06

----------
- assay.name: Protein binding in mouse plasma assessed as unbound fraction at 1 mM measured after 1 hr by LC-MS/MS analysis
- Format: ADME, cell-free
reported.endpoint: fraction unbound at 1 h
Form rule: numeric answer, no unit written next to it.

Identify fraction unbound at 1 h associated with the compound Oc1ccc(-c2cc(-c3ccccc3Cl)nc3c2Cc2c(O)cccc2-3)cc1
0.999
